- Tested on: Key Broadleaf Weed and Crop Species
- assay: Post-emergent Test II herbicidal activity (Table 15)
- Format: in vivo
- setup conditions: Euphorbia heterophylla, post-emergence, 336 h, wild poinsettia (Euphorbia heterophylla), 35 g ai/ha, 14 d, read-out: Visual Growth Reduction (%) 14 Days After Application, EPHHL
Catalogue of pest or weed control at 35 g/ha readings, one per entry.

Reference set, count: 5
compound	pest or weed control at 35 g/ha
COC(=O)c1nc(-c2c(F)cc3cc[nH]c3c2F)cc(N)c1Cl [Compound 1.27]	95 to 100%
COC(=O)c1nc(-c2cccc3occc23)c(F)c(N)c1Cl [Compound 2.15]	0 to 29%
COC(=O)c1nc(-c2ccc3ncn(C)c3c2)c(F)c(N)c1Cl [Compound 7.02]	0 to 29%
COc1c(N)nc(-c2ccc3sccc3c2)nc1C(=O)O [Compound 3.09]	95 to 100%
COC(=O)c1nc(-c2ccc3sccc3c2)cc(N)c1Cl [Compound 3.05]	60 to 74%

-- ask Which measured pest or weed control at 35 g/ha value corresponds to COC(=O)c1nc(-c2ccc3cc[nH]c3c2)cc(N)c1Cl [Compound 1.21] ?
-- reply 75 to 84%

-- ask Follow-up item: COC(=O)c1nc(-c2cc3[nH]ccc3cc2F)c(F)c(N)c1Cl [Compound 1.13]
-- reply 0 to 29%

* * *

Catalogue of pest or weed control at 140 g/ha readings, one per entry.
- Tested on: Key Grass and Sedge Weeds as well as Grass Crops
- assay: Post-emergent Test II herbicidal activity (Table 16)
- Type: in vivo
- setup conditions: Cyperus esculentus, post-emergence, 336 h, yellow nutsedge (Cyperus esculentus), 140 g ai/ha, 14 d, read-out: Visual Growth Reduction (%) 14 Days After Application, CYPES

Reference set, count: 6
compound	target or test system	pest or weed control at 140 g/ha
COC(=O)c1nc(-c2ccc3cc[nH]c3c2F)c(F)c(N)c1Cl [Compound 1.15]	Key Grass and Sedge Weeds as well as Grass Crops	45 to 59%
Nc1cc(-c2cc3[nH]ccc3cc2F)nc(C(=O)O)c1Cl [Compound 1.26]	Key Grass and Sedge Weeds as well as Grass Crops	0 to 29%
COC(=O)c1nc(-c2ccc(Cl)c3occc23)nc(N)c1OC [Compound 2.21]	Key Grass and Sedge Weeds as well as Grass Crops	0 to 29%
COC(=O)c1nc(-c2ccc(Cl)c3ccoc23)c(F)c(N)c1Cl [Compound 2.24]	Key Grass and Sedge Weeds as well as Grass Crops	85 to 94%
Nc1c(F)c(-c2ccc3[nH]ccc3c2)nc(C(=O)O)c1Cl [Compound 1.04]	Key Grass and Sedge Weeds as well as Grass Crops	0 to 29%
COC(=O)c1nc(-c2ccc3ccoc3c2F)cc(N)c1Cl [Compound 2.11]	Key Grass and Sedge Weeds as well as Grass Crops	30 to 44%

-- ask Which measured pest or weed control at 140 g/ha value corresponds to Nc1c(F)c(-c2ccc3cc[nH]c3c2)nc(C(=O)O)c1Cl [Compound 1.09] ?
-- reply 85 to 94%

-- ask Follow-up item: C=Cc1c(C(=O)O)nc(-c2ccc3cc[nH]c3c2F)c(F)c1N [Compound 1.19]
-- reply 95 to 100%

-- ask Follow-up item: COC(=O)c1nc(-c2ccc(Cl)c3[nH]ccc23)nc(N)c1OC [Compound 1.45]
-- reply 0 to 29%

* * *

assay endpoint: melting point

-- ask Which measured melting point value corresponds to COC(=O)c1nc(-c2ccc(Cl)c3cc[nH]c23)nc(N)c1OC [Compound 1.50] ?
-- reply 147 to 149 °C

-- ask Follow-up item: Cn1ncc2c(-c3nc(C(=O)O)c(Cl)c(N)c3F)cccc21 [Compound 4.11]
-- reply 173 to 175 °C

-- ask Follow-up item: COC(=O)c1nc(-c2ccc3ccn([Si](C(C)C)(C(C)C)C(C)C)c3c2F)c(F)c(N)c1Cl [Compound 1.12]
-- reply 181 to 182 °C

-- ask Follow-up item: COC(=O)c1nc(-c2cccc3occc23)c(F)c(N)c1Cl [Compound 2.15]
-- reply 100 to 103 °C

-- ask Follow-up item: Cn1ccc2c(-c3nc(C(=O)O)c(Cl)c(N)c3F)cccc21 [Compound 1.42]
-- reply 158 to 160 °C

* * *

- System: Wheat and Barley and test plant species
- assay: Post-emergent Test III, herbicidal activity in wheat and barley (Table 17; visual injury, GR20/GR50/GR80/GR90)
- Assay type: in vivo
- setup conditions: SASKR; 17.5 g ai/ha; post-emergent; 21 d
assay endpoint: Visual Growth Reduction (%) 21 Days After Application, SASKR

smiles notation	result
COC(=O)c1nc(-c2ccc(Cl)c3ccoc23)c(F)c(N)c1Cl	D (60-74)
Nc1c(F)c(-c2ccc3cc[nH]c3c2F)nc(C(=O)O)c1Cl	D (60-74)

* * *

- System: Key Grass and Sedge Weeds as well as Grass Crops
- assay: Post-emergent Test II herbicidal activity (Table 16)
- Assay type: in vivo
- setup conditions: Triticum aestivum, post-emergence, 336 h, wheat, spring (Triticum aestivum), 70 g ai/ha, 14 d, read-out: Visual Growth Reduction (%) 14 Days After Application, TRZAS
Catalogue of pest or weed control at 70 g/ha readings, one per entry.

Reference set, count: 2
compound	target or test system	pest or weed control at 70 g/ha
COC(=O)c1nc(-c2ccc(Cl)c3[nH]ccc23)cc(N)c1Cl [Compound 1.44]	Key Grass and Sedge Weeds as well as Grass Crops	0 to 29%
COC(=O)c1nc(-c2ccc3ccoc3c2F)cc(N)c1Cl [Compound 2.11]	Key Grass and Sedge Weeds as well as Grass Crops	0 to 29%

-- ask Which measured pest or weed control at 70 g/ha value corresponds to Nc1c(F)c(-c2ccc3cc[nH]c3c2)nc(C(=O)O)c1Cl [Compound 1.09] ?
-- reply 0 to 29%

-- ask Follow-up item: COC(=O)c1nc(-c2ccc3cc[nH]c3c2F)c(F)c(N)c1Cl [Compound 1.15]
-- reply 60 to 74%

-- ask Follow-up item: COC(=O)c1nc(-c2ccc3ccoc3c2F)c(F)c(N)c1Cl [Compound 2.09]
-- reply 0 to 29%

-- ask Follow-up item: COC(=O)c1nc(-c2ccc(Cl)c3[nH]ccc23)c(F)c(N)c1Cl [Compound 1.43]
-- reply 0 to 29%

-- ask Follow-up item: COC(=O)c1nc(-c2cc3occc3cc2F)cc(N)c1Cl [Compound 2.12]
-- reply 0 to 29%

-- ask Follow-up item: COC(=O)c1nc(-c2ccc3c(ccn3C)c2)c(F)c(N)c1Cl [Compound 1.03]
-- reply 0 to 29%

-- ask Follow-up item: Nc1cc(-c2ccc3cc[nH]c3c2F)nc(C(=O)O)c1Cl [Compound 1.24]
-- reply 30 to 44%

* * *

- Tested on: Wheat and Barley and test plant species
- assay: Post-emergent Test III, herbicidal activity in wheat and barley (Table 17; visual injury, GR20/GR50/GR80/GR90)
- Type: in vivo
- setup conditions: TRZAS; 35 g ai/ha; post-emergent; 21 d
assay endpoint: Visual Growth Reduction (%) 21 Days After Application, TRZAS

molecule	result
COC(=O)c1nc(-c2ccc(Cl)c3ccoc23)c(F)c(N)c1Cl [Compound 2.24]	G (0-29)
Nc1c(F)c(-c2ccc3cc[nH]c3c2F)nc(C(=O)O)c1Cl [Compound 1.16]	G (0-29)
COC(=O)c1nc(-c2ccc3cc[nH]c3c2F)cc(N)c1Cl [Compound 1.23]	G (0-29)

* * *

- System: Key Broadleaf Weed and Crop Species
- assay: Post-emergent Test II herbicidal activity (Table 15)
- Type: in vivo
- setup conditions: Abutilon theophrasti, post-emergence, 336 h, velvetleaf (Abutilon theophrasti), 70 g ai/ha, 14 d, read-out: Visual Growth Reduction (%) 14 Days After Application, ABUTH
assay endpoint: pest or weed control at 70 g/ha

Reference set, count: 4
smiles notation	pest or weed control at 70 g/ha
Nc1c(F)c(-c2ccc3occc3c2)nc(C(=O)O)c1Cl	85 to 94%
COC(=O)c1nc(-c2ccc(Cl)c3occc23)nc(N)c1OC	60 to 74%
Nc1c(Cl)c(C(=O)O)nc(-c2ccc3cc[nH]c3c2)c1Cl	0 to 29%
COC(=O)c1nc(-c2ccc3cc[nH]c3c2)c(C)c(N)c1Cl	85 to 94%

As a next step, examine the compound that follows.
-- ask Which measured pest or weed control at 70 g/ha value corresponds to `COC(=O)c1nc(-c2cccc3[nH]ccc23)c(F)c(N)c1Cl` ?
-- reply 0 to 29%

* * *

- Tested on: Key Grass and Sedge Weeds as well as Grass Crops
- assay: Post-emergent Test II herbicidal activity (Table 16)
- Assay type: in vivo
- setup conditions: Echinochloa crus-galli, post-emergence, 336 h, barnyardgrass (Echinochloa crus-galli), 140 g ai/ha, 14 d, read-out: Visual Growth Reduction (%) 14 Days After Application, ECHCG
assay endpoint: pest or weed control at 140 g/ha

smiles notation	pest or weed control at 140 g/ha
COC(=O)c1nc(-c2ccc3cc[nH]c3c2)nc(N)c1OC	0 to 29%
COC(=O)c1nc(-c2ccc3sccc3c2)c(C)c(N)c1Cl	0 to 29%
COC(=O)c1nc(-c2cc3ccoc3cc2F)nc(N)c1OC	0 to 29%

-- ask Which measured pest or weed control at 140 g/ha value corresponds to `Nc1nc(-c2ccc(Cl)c3occc23)nc(C(=O)O)c1Cl` ?
-- reply 0 to 29%

-- ask Follow-up item: `Nc1c(Cl)c(C(=O)O)nc(-c2ccc3sccc3c2)c1Cl`
-- reply 0 to 29%

Data origin, for the record: patent US20170050957A1
